The measurements presented in this section are drawn from PubChem BioAssay (NCI).

# System: HL-60(TB) leukemia
# Protocol description: NCI-60 one-dose screen, 48 h (100 = growth as untreated, 0 = no growth, -100 = all killed)
# Experimental setup: 10 µM unless noted
# Protocol: Growth inhibition of the HL-60(TB) human tumor cell line is measured as a screen for anti-cancer activity. Cells are grown in 96 well plates and exposed to the test compound for 48 hours. Compounds are tested at a single concentration, which is 10^-5 M for most compounds. The reported endpoint is percent growth (GI% or GIPRCNT), where numbers from 0 - 100% represent growth inhibition, and numbers from -100% - 0 represent cell death. For example, a value of 40 represents 60% growth inhibition. […]
About 83,000 compounds went through this panel and 20% of them were active in at least one assay; those are over-represented in the sample as a whole.
growth values, listed per item

# Structure string, Test system, Measurement units, growth
measured = [
    ("c1ccc2c(-c3nc(-c4c[nH]c5ccncc45)cs3)c[nH]c2c1", "HL-60(TB) leukemia", "%", 45.9),
    ("COc1ccc(C(=O)/C=C/c2cc(-c3cc(OC)c(OC)c(OC)c3)n[nH]2)cc1OC", "HL-60(TB) leukemia", "%", 3.15),
    ("CCS(=O)(=O)N1CCN(c2ccc(Nc3ncc(C(N)=O)c(NC4CC4)n3)cc2)CC1", "HL-60(TB) leukemia", "%", 71.2),
    ("O=C(CCCNC(=O)c1nc(-c2ccccc2)n(-c2ccccc2)n1)NO", "HL-60(TB) leukemia", "%", 87.9),
    ("C/C(=C\\c1ccc([N+](=O)[O-])cc1)C(=O)O", "HL-60(TB) leukemia", "%", 105),
]

----------
# Test system: RXF 393 renal
# Protocol description: NCI-60 one-dose screen, 48 h (100 = growth as untreated, 0 = no growth, -100 = all killed)
# Experimental setup: 10 µM unless noted
About 83,000 compounds went through this panel and 20% of them were active in at least one assay; those are over-represented in the sample as a whole. Calls of active or inactive are those of the source. Rule for the calls: active = growth percent below 10; inactive = the rest.

# Molecule, Test system, growth
rows = [
    ("C[CH2][Pb]([CH2]C)([CH2]C)[O]C(=O)c1ccc(N)cc1", "RXF 393 renal", "34.2% (inactive)"),
    ("CC[C@]12C=CCN3CC[C@@]4(c5ccc(OC)cc5N(C)[C@H]4[C@@](O)(C(=O)OC)[C@@H]1OC(=O)CCCN1CCN(CCCC(=O)O[C@@H]4[C@]5(CC)C=CCN6CC[C@@]7(c8ccc(OC)cc8N(C)[C@H]7[C@@]4(O)C(=O)OC)[C@@H]65)CC1)[C@@H]32", "RXF 393 renal", "-88.5% (active)"),
    ("COc1cccc2c1C(=O)c1c(O)c3c(c(O)c1C2=O)CC(O)(/C(C)=N/NC(=O)CCC(=O)N/N=C(\\C)C1(O)Cc2c(O)c4c(c(O)c2C(OC2CC(N)C(O)C(C)O2)C1)C(=O)c1c(OC)cccc1C4=O)CC3OC1CC(N)C(O)C(C)O1 (centres undefined)", "RXF 393 renal", "-56.7% [5 µM] (active)"),
    ("[O]=[Sn]([CH]1CCCCC1)[CH]1CCCCC1", "RXF 393 renal", "-99% (active)"),
]

----------
# Test system: HL-60(TB) leukemia
# Protocol description: NCI-60 one-dose screen, 48 h (100 = growth as untreated, 0 = no growth, -100 = all killed)
# Experimental setup: 10 µM unless noted
This is part of a sample that, as a whole, favours compounds with a hit. Of some 83,000 tested, about 20% had one in any assay.
growth values, listed per item

# Structure string, growth, %
measured = [
    ("CCOC(=O)CN1/C(=N/c2sc3c(c2C(=O)OCC)CCN(C(=O)OCC)C3)SC(=O)/C1=C\\C(=O)OC", 79.9),
    ("COC(=O)[C@@H]1CCCN1C(=O)[C@@H]1CCCN1C(=O)[C@@H](Cc1c[nH]c2ccccc12)NC(=S)Nc1cc(C(F)(F)F)cc(C(F)(F)F)c1", 11.1),
    ("O=C1/C(=C/c2ccc(Cl)cc2)SC(=Nc2ccc(Cl)cc2)N1Cc1nc2ccccc2[nH]1", 95.8),
    ("CN1C(=O)N(C)[C@H]2NC(NN)=N[C@H]21", 102),
    ("CC(C)C1(C(C)C)NC(=O)NC1=O", 95.1),
]

----------
# System: SK-OV-3 ovarian
# Protocol description: NCI-60 one-dose screen, 48 h (100 = growth as untreated, 0 = no growth, -100 = all killed)
# Experimental setup: 10 µM unless noted
# Protocol: Growth inhibition of the SK-OV-3 human tumor cell line is measured as a screen for anti-cancer activity. Cells are grown in 96 well plates and exposed to the test compound for 48 hours. Compounds are tested at a single concentration, which is 10^-5 M for most compounds. The reported endpoint is percent growth (GI% or GIPRCNT), where numbers from 0 - 100% represent growth inhibition, and numbers from -100% - 0 represent cell death. For example, a value of 40 represents 60% growth inhibition. […]
Compounds without any hit were thinned out: in the full panel of roughly 83,000, 20% have a hit.
Outcome measure: growth (%)

# Compound, Test system, Outcome measure, Measurement units, Recorded result
data = [
    ("CC(CC(C#N)(c1ccccc1)c1ccccc1)N1CCOCC1 (stereo not given)", "SK-OV-3 ovarian", "growth", "%", 109),
    ("Nc1ncnc2c1c(C(=O)NO)cn2C1OC(CO)C(O)C1O (stereo not given)", "SK-OV-3 ovarian", "growth", "%", -18.2),
    ("CC1(C)N=C(N)N=C(N)N1c1ccc(CCCCc2ccc(S(=O)(=O)F)cc2)c(Cl)c1", "SK-OV-3 ovarian", "growth", "%", 42),
    ("O=C(C(=O)N1CCCC1)c1cn(CCCCCn2cc(C(=O)C(=O)N3CCCC3)c3ccccc32)c2ccccc12", "SK-OV-3 ovarian", "growth", "%", 103),
    ("C/C(=N/OC(=O)N(C)C)c1cc(Cl)ccc1Cl", "SK-OV-3 ovarian", "growth", "%", 98.3),
    ("CSc1ccccc1NP1(=O)OCC(C)([N+](=O)[O-])CO1 (stereo not given)", "SK-OV-3 ovarian", "growth", "%", 98.2),
    ("Fc1ccc(C2=NN(c3ccccc3)C(c3sc(N(CCCl)CCCl)nc3Cl)C2)cc1 (stereo not given)", "SK-OV-3 ovarian", "growth", "%", 76.5),
    ("[N-]=[N+]=NC(C(=O)O)c1ccccc1 (stereo not given)", "SK-OV-3 ovarian", "growth", "%", 99.5),
    ("CC1(C)CC2(CC(C)(C)c3cc(O)c(O)cc32)c2cc(O)c(O)cc21", "SK-OV-3 ovarian", "growth", "%", 97.1),
    ("C[C@]12CC[C@H](OC3OC(O)C(O)C(O)C3O)C=C1CCC1C2CC[C@]2(C)[C@@H](c3ccc(=O)oc3)CC[C@]12O (stereo not given in full)", "SK-OV-3 ovarian", "growth", "%", -93.7),
]

----------
# System: SF-539 CNS
# Protocol description: NCI-60 one-dose screen, 48 h
# Experimental setup: 10 µM unless noted
About 83,000 compounds went through this panel and 20% of them were active in at least one assay; those are over-represented in the sample as a whole. The source made the active and inactive calls. How the source made its calls: active means growth percent below 10; inactive means the rest.
Labels: yes for active, no for inactive

# Compound, Class assignment
records = [
    ("CCC1([N+](=O)[O-])COP(=O)(NCc2cccnc2)OC1 (stereo unspecified)", "no"),
    ("O=C(CCl)NCNC(=O)CCl", "no"),
    ("Cc1cc([N+](=O)[O-])c(Cl)cc1NS(=O)(=O)c1ccccc1", "no"),
    ("Cc1cccc(N=C2c3cc([N+](=O)[O-])ccc3-c3c2cc([N+](=O)[O-])cc3[N+](=O)[O-])c1", "no"),
    ("CC12CCC3C(CC=C4CC(O)CCC43C)C1C/C(=C\\N1CCOCC1)C2=O (stereo unspecified)", "no"),
    ("C=C=[CH][Sn]([c]1ccccc1)([c]1ccccc1)[c]1ccccc1", "yes"),
    ("Nc1ccc([N+](=O)[O-])c2c1Oc1ccccc1O2", "no"),
    ("CC(=O)N(C)C1=Nc2ccc(Cl)cc2C(c2ccccc2)=[N+]([O-])C1", "no"),
    ("N#[N+]c1cnc([O-])[nH]c1=O", "no"),
    ("c1cnc2c(c1)ccc1ncccc12", "no"),
    ("CC(=O)[O][Hg][CH2]C1(C)COC(C)([CH2][Hg][O]C(C)=O)CO1 (stereo unspecified)", "yes"),
]

----------
# Tested on: PC-3 prostate
# Protocol description: NCI-60 one-dose screen, 48 h
# Experimental setup: 10 µM unless noted
Compounds without any hit were thinned out: in the full panel of roughly 83,000, 20% have a hit. Activity calls are given as the source filed them. Rule for the calls: active = growth percent below 10; inactive = the rest.
Labels: active, inactive

# Compound, Test system, Class assignment
records = [
    ("N#C[Se]CCCNS(=O)(=O)C1CC2C=CC1C2 (stereo unspecified)", "PC-3 prostate", "active"),
    ("N#[N+]c1nc2nc(N)[nH]c(=O)c2[nH]1", "PC-3 prostate", "inactive"),
    ("O=CN1N=C(c2ccccc2)CC1c1sc(N(CCCl)CCCl)nc1Cl (stereo unspecified)", "PC-3 prostate", "inactive"),
    ("CCOC(=O)/C=C(\\C)Nc1ccc(N/C(C)=C/C(=O)OCC)c2c1Oc1ccccc1O2", "PC-3 prostate", "inactive"),
    ("CC[C@@H](C)/C=C(C)/C=C/C(=O)c1c(O)c(-c2ccc(O)cc2)cn(O)c1=O", "PC-3 prostate", "inactive"),
    ("C/C(=N/OC(=O)N(C)C)c1ccc(Cl)cc1Cl", "PC-3 prostate", "inactive"),
    ("Cn1cnnc1[S-].[Au+].c1ccc([PH+](c2ccccc2)c2ccccc2)cc1", "PC-3 prostate", "inactive"),
    ("O=C(N/N=C/c1ccc(N(CCCl)CCCl)cc1)c1cc(=O)[nH]c(=O)[nH]1", "PC-3 prostate", "inactive"),
    ("O=S(=O)(F)c1ncnc2nc[nH]c12", "PC-3 prostate", "inactive"),
    ("CC1COC(=O)C1 (stereo unspecified)", "PC-3 prostate", "inactive"),
    ("CN(C)P1(N(C)C)=NP(N(C)C)(N(C)C)=NP(N(C)C)(N(C)C)=N1", "PC-3 prostate", "inactive"),
]
